Source of measurements: the supplement of paper PMC6555819

What PBM binding z-score was measured for each of the following?
- Test system: PPARg:RXRa (NR concentration 180 nM, RXRa partner concentration 90 nM)
- Protocol: PBM binding z-score (relative to random genomic background probes); higher = stronger binding; sequences stand for … in GC…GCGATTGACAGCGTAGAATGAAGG
Give a plain numeric answer without units written out.

Query: Determine reported PBM binding z-score for "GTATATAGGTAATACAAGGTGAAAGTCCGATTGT" ; test system: PPARg:RXRa (NR concentration 180 nM, RXRa partner concentration 90 nM).
Result: 3.05

Query: Determine reported PBM binding z-score for "ATCTCTAGGTTAAGTTCAGTGAAAGATCGATAGA" ; test system: PPARg:RXRa (NR concentration 180 nM, RXRa partner concentration 90 nM).
Result: 1.87

Query: Determine reported PBM binding z-score for "TAGCCTAGGTCAGATCGGGCCAGTATACGCTATA" ; test system: PPARg:RXRa (NR concentration 180 nM, RXRa partner concentration 90 nM).
Result: 0.85

Query: Determine reported PBM binding z-score for "GTTCCAAGGTGAATAGGTCGTTGATGAGTAGGCG" ; test system: PPARg:RXRa (NR concentration 180 nM, RXRa partner concentration 90 nM).
Result: 1.16

Query: Determine reported PBM binding z-score for "CAAACTAGGTCACAGAGATCAAAGTCCGTGCGTA" ; test system: PPARg:RXRa (NR concentration 180 nM, RXRa partner concentration 90 nM).
Result: 8.83

Query: Determine reported PBM binding z-score for "GCATGTAGATCAAGGTTAAGAAAGACTAAGCTAA" ; test system: PPARg:RXRa (NR concentration 180 nM, RXRa partner concentration 90 nM).
Result: 1.33

Query: Determine reported PBM binding z-score for "ATCGAAAGGTCGAGGTGAGCATAGAGAAAGGGAA" ; test system: PPARg:RXRa (NR concentration 180 nM, RXRa partner concentration 90 nM).
Result: 3.46

Query: Determine reported PBM binding z-score for "ATCTCTAGTTAAGACTCAGTTCAGTGAAGAACGC" ; test system: PPARg:RXRa (NR concentration 180 nM, RXRa partner concentration 90 nM).
Result: -0.0269

Query: Determine reported PBM binding z-score for "ATATGTAGGTTACATCCGGGTAATTCAGGCTATG" ; test system: PPARg:RXRa (NR concentration 180 nM, RXRa partner concentration 90 nM).
Result: 5.44

Query: Determine reported PBM binding z-score for "ATCTCTAGGTAACCAAGTTCAGTTAATGCCGAAC" ; test system: PPARg:RXRa (NR concentration 180 nM, RXRa partner concentration 90 nM).
Result: 0.806

Query: Determine reported PBM binding z-score for "GCTTGTAGATCAAGGTTAACAAAGACTAAGCTAA" ; test system: PPARg:RXRa (NR concentration 180 nM, RXRa partner concentration 90 nM).
Result: 2.04

Query: Determine reported PBM binding z-score for "GGACCGAGGGCATTCGAGTTGATAGCATGGCGAT" ; test system: PPARg:RXRa (NR concentration 180 nM, RXRa partner concentration 90 nM).
Result: 0.4

Query: Determine reported PBM binding z-score for "ACTATTAGTTGACTTAGGGCAACCAATACGACGC" ; test system: PPARg:RXRa (NR concentration 180 nM, RXRa partner concentration 90 nM).
Result: 0.997

Query: Determine reported PBM binding z-score for "CCTACTGGGCCAAAAAGGTCGTTGATGCCGATAA" ; test system: PPARg:RXRa (NR concentration 180 nM, RXRa partner concentration 90 nM).
Result: 1.08

Query: Determine reported PBM binding z-score for "AGAATGAGGTTAAGATCAGGGAGACAGAATACAT" ; test system: PPARg:RXRa (NR concentration 180 nM, RXRa partner concentration 90 nM).
Result: 2.15

Query: Determine reported PBM binding z-score for "CCTACTGGGCCATAGGTCATTGATTCCAATGCTC" ; test system: PPARg:RXRa (NR concentration 180 nM, RXRa partner concentration 90 nM).
Result: 9.89

Query: Determine reported PBM binding z-score for "GCAACTGGGGCAAAGCAGGTTACCATAAGGTTGG" ; test system: PPARg:RXRa (NR concentration 180 nM, RXRa partner concentration 90 nM).
Result: 2.61

Query: Determine reported PBM binding z-score for "GGAACGAGGGCATTCGAGTTGATAGTATGGCGAT" ; test system: PPARg:RXRa (NR concentration 180 nM, RXRa partner concentration 90 nM).
Result: 1.13

Query: Determine reported PBM binding z-score for "CATAAAGGGTCAGCTAGGCCAGAGTAGGGACGGC" ; test system: PPARg:RXRa (NR concentration 180 nM, RXRa partner concentration 90 nM).
Result: 4.17

Query: Determine reported PBM binding z-score for "ACTAGCAGGCCAAGGGTAACTCAAGATTAGTCCG" ; test system: PPARg:RXRa (NR concentration 180 nM, RXRa partner concentration 90 nM).
Result: 3.38

Query: Determine reported PBM binding z-score for "AGTCAAAGTTCACTGGGTAACGTAAGATTCAGCT" ; test system: PPARg:RXRa (NR concentration 180 nM, RXRa partner concentration 90 nM).
Result: 7.5

Query: Determine reported PBM binding z-score for "ATCTCTAGGTAAAAGTGCAGTGAATCCCGAGGAT" ; test system: PPARg:RXRa (NR concentration 180 nM, RXRa partner concentration 90 nM).
Result: 4.31

Query: Determine reported PBM binding z-score for "ACTATTAGTTCACTTAGGGCAACCGATACGACGC" ; test system: PPARg:RXRa (NR concentration 180 nM, RXRa partner concentration 90 nM).
Result: 1.04

Query: Determine reported PBM binding z-score for "TCAGACAGGTAAAGGTAACTCAGGTACGCAGTCG" ; test system: PPARg:RXRa (NR concentration 180 nM, RXRa partner concentration 90 nM).
Result: 1.11

Query: Determine reported PBM binding z-score for "ATATGTAGGTTAGCTGGGGTTATTCAGACTAGGC" ; test system: PPARg:RXRa (NR concentration 180 nM, RXRa partner concentration 90 nM).
Result: 4.22

Query: Determine reported PBM binding z-score for "AGAATAAGGTTAAGATCAGGGAAACAGAATACAT" ; test system: PPARg:RXRa (NR concentration 180 nM, RXRa partner concentration 90 nM).
Result: 1.75

Query: Determine reported PBM binding z-score for "CCTACTGGGCCATTCAGAGGTCAGTGATCATATG" ; test system: PPARg:RXRa (NR concentration 180 nM, RXRa partner concentration 90 nM).
Result: 1.47

Query: Determine reported PBM binding z-score for "AGTCAAAGTTCATCTAGGTTACGTAAGATATGCT" ; test system: PPARg:RXRa (NR concentration 180 nM, RXRa partner concentration 90 nM).
Result: 6.9

Query: Determine reported PBM binding z-score for "CCTATTAGTTCACCATAAGGGCAACCGAAGCTCG" ; test system: PPARg:RXRa (NR concentration 180 nM, RXRa partner concentration 90 nM).
Result: 0.515

Query: Determine reported PBM binding z-score for "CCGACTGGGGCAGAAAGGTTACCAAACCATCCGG" ; test system: PPARg:RXRa (NR concentration 180 nM, RXRa partner concentration 90 nM).
Result: 1.48

Query: Determine reported PBM binding z-score for "AGAATGAGATTATTAAGATCAGGGAATTGCGGTC" ; test system: PPARg:RXRa (NR concentration 180 nM, RXRa partner concentration 90 nM).
Result: 0.449

* * *

- Tested on: PPARg:RXRa 90nM:30nM, anti-RXR (NR concentration 90 nM, RXRa partner concentration 30 nM)
- Protocol: PBM binding z-score (relative to random genomic background probes); higher = stronger binding; sequences stand for … in GC…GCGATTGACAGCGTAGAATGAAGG
Measured metric: PBM binding z-score

Query: Determine from records and report PBM binding z-score for "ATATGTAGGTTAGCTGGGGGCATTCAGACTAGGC"
Result: 3.72

Query: Determine from records and report PBM binding z-score for "CGTGAAAGTTCAACTAAGGTAACGTAAAGCACGC"
Result: 3.39

Query: Determine from records and report PBM binding z-score for "CGTCCAAGGTCAGTAGGTCAGTGAAAGCGACGTG"
Result: 4.9

Query: Determine from records and report PBM binding z-score for "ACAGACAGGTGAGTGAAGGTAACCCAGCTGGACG"
Result: 0.213

Query: Determine from records and report PBM binding z-score for "TCTCGGAGGACGCGAAGGTCAGAGCTTTCCAGAG"
Result: 1.21

Query: Determine from records and report PBM binding z-score for "TTACTAAGGTGAGCTGAGGTCGTTGATCCAACTC"
Result: 0.711

Query: Determine from records and report PBM binding z-score for "GCTATTTGTTGAAAGGGCAACCGAATGATTCTCG"
Result: 1.46

Query: Determine from records and report PBM binding z-score for "TAGCCTCGGTCATGCGGGCCAGTATAGTGTCGGC"
Result: -0.372

Query: Determine from records and report PBM binding z-score for "CCTTACGAGTCACTCCAGGTTATAGCATCGGAGT"
Result: -0.0945

Query: Determine from records and report PBM binding z-score for "CCTGCTAGGTCAATGGTCAGCTATAGCAGCTCGC"
Result: 4.71

Query: Determine from records and report PBM binding z-score for "AGAACGAGGGCACGCTGAGTTGATAGTAGAGTAG"
Result: 0.971

Query: Determine from records and report PBM binding z-score for "ACAGACAGGTGATGAATGTAACTCAGGCTATCAT"
Result: -0.0676

Query: Determine from records and report PBM binding z-score for "TTACCAAGGTGAGCTGAAGTCGTTGATCCAACTC"
Result: 0.0287

Query: Determine from records and report PBM binding z-score for "AGAATGCGGTTAAGATCAGGGAAACAGAATACAT"
Result: 0.258

Query: Determine from records and report PBM binding z-score for "CCTTACGGGTCACTGACAGGTAATAGCATTTGGA"
Result: 3.12

Query: Determine from records and report PBM binding z-score for "CTACCAAGGTGAGCAAGGTCGTTGATTACTATTC"
Result: -0.252

Query: Determine from records and report PBM binding z-score for "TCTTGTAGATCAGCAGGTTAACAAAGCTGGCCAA"
Result: 2.21
